Cited source for all entries: patent US10407422B2

Reported values of IC50 for individual entries
# assayed.target: myeloperoxidase (MPO) (Homo sapiens (Human), UniProt P05164)
# Sequence (P05164 49-745): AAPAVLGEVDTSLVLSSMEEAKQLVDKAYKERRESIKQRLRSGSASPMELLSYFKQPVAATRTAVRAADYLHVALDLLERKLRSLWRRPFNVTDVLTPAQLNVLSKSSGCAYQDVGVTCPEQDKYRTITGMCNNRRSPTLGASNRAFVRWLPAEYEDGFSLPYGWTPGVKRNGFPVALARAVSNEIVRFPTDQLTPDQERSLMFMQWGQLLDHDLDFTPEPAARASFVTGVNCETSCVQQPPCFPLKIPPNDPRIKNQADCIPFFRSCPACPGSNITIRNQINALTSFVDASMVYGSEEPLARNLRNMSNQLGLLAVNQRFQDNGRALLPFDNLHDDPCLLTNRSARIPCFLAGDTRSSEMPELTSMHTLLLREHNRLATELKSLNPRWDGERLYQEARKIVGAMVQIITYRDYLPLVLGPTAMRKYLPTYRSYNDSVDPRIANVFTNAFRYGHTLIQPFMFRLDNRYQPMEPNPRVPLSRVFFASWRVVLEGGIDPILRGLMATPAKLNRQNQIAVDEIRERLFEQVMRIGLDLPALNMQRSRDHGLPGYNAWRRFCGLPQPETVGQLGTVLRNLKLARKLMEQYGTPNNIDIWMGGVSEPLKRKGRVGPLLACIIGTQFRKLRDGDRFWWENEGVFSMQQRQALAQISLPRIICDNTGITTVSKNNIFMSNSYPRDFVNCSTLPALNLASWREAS
# protocol.summary: MPO peroxidation assay (Amplex Red assay)
# Assay type: biochemical
# details: potency range class

Examples with answers:
Nc1cc(Cc2cnn(Cc3ccc4c(c3)CCN(C(=O)c3ncc[nH]3)C4)c2)c2nn[nH]c2n1
0.101 to 0.999 µM
COc1ncc(-c2cccc(Cn3cc(Cc4cc(N)nc5[nH]nnc45)cn3)c2)cn1
0.001 to 0.1 µM
CC(C)(C)OC(=O)N1CCc2cc(Cn3cc(Cc4cc(N)nc5[nH]nnc45)cn3)ccc2C1
0.101 to 0.999 µM
COc1nccc2ccc(Cn3cc(Cc4cc(N)nc5[nH]nnc45)cn3)cc12
0.001 to 0.1 µM
Nc1cc(Cc2cnn(Cc3cccc(OCCC4CCc5ccccc54)c3)c2)c2nn[nH]c2n1 (centres unmarked)
0.101 to 0.999 µM
Cc1cc(Cc2cc(N)nc3[nH]nnc23)no1
0.101 to 0.999 µM

Request: Please state recorded IC50 (tested on myeloperoxidase (MPO) (Homo sapiens (Human), UniProt P05164)) of Nc1cc(Cc2cnn(Cc3cccc(OC[C@H]4CCCN4)c3)c2)c2nn[nH]c2n1
Response: 0.001 to 0.1 µM

Request: # query: IC50 | item Nc1cc(Cc2cnn(Cc3ccc4c(c3)OCO4)c2)c2nn[nH]c2n1 | system: myeloperoxidase (MPO) (Homo sapiens (Human), UniProt P05164)
Response: 0.001 to 0.1 µM

Request: Any idea what IC50 came out for Nc1cc(Cc2cnn(Cc3ccc4cnccc4c3)c2)c2nn[nH]c2n1 on myeloperoxidase (MPO) (Homo sapiens (Human), UniProt P05164)?
Response: 0.101 to 0.999 µM

Request: Lab note: need IC50 with myeloperoxidase (MPO) (Homo sapiens (Human), UniProt P05164) for entry Nc1cc(Cc2cnn(-c3cccc(Br)c3)c2)c2nn[nH]c2n1 , please look it up.
Response: 0.001 to 0.1 µM
